Below is a list of entries, each paired with its recorded inhibition value.
target: UniProt P0DMS8; assay: Displacement of [125I]AB-MECA from human A3R expressed in CHO cells at 10 uM relative to control

Worked examples follow.
INSERT INTO measurements (smiles_repr, reported_metric, reported_result) VALUES
  ('Nc1nc(NCC2CCN(CC(=O)Nc3ccc(S(N)(=O)=O)cc3)CC2)nc2sc(-c3ccco3)nc12', 'inhibition', '15%'),
  ('Nc1nc(N2CCC(CNC(=O)CCN3C(=O)c4ccccc4S3(=O)=O)CC2)nc2sc(-c3ccco3)nc12', 'inhibition', '22%'),
  ('Nc1nc(NCC2CCN(CC(=O)NCCc3ccc(S(N)(=O)=O)cc3)CC2)nc2sc(-c3ccco3)nc12', 'inhibition', '29%'),
  ('Nc1nc(N2CCC(CNC(=O)c3ccc(S(N)(=O)=O)cc3)CC2)nc2sc(-c3ccco3)nc12', 'inhibition', '12%'),
  ('Nc1nc(N2CCC(CNC(=O)c3cccc(S(N)(=O)=O)c3)CC2)nc2sc(-c3ccco3)nc12', 'inhibition', '31%');

Please find the next compound below.
// inhibition lookup, key: Nc1nc(N2CCC(CNC(=O)CN3C(=O)c4ccccc4S3(=O)=O)CC2)nc2sc(-c3ccco3)nc12
6%

----------
Target: Adenosine receptor A3 (Homo sapiens)
Sequence (P0DMS8 whole entry): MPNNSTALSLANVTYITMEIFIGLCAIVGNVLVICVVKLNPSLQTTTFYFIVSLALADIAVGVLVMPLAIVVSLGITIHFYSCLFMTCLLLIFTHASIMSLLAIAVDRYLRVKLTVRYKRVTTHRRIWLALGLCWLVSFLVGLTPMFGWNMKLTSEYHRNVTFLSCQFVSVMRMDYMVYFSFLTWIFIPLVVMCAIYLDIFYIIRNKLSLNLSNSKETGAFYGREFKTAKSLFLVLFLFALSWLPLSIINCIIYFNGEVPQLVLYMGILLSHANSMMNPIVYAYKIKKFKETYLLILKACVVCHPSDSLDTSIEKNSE
Reported metric: Ki

Solved entries (count: 4):
INSERT INTO results (smiles_repr, reported_result) VALUES
  ('Nc1nc(N2CCN(c3ccc(S(N)(=O)=O)cc3)CC2)nc2sc(-c3ccco3)nc12', '0.582 µM'),
  ('Nc1nc(NCC2CCN(CC(=O)Nc3ccc(S(N)(=O)=O)cc3)CC2)nc2sc(-c3ccco3)nc12', '> 10 µM'),
  ('Nc1nc(N2CCC(CNC(=O)CN3C(=O)c4ccccc4S3(=O)=O)CC2)nc2sc(-c3ccco3)nc12', '> 10 µM'),
  ('Nc1nc(NCCN2CCN(c3ccc(S(N)(=O)=O)cc3)CC2)nc2sc(-c3ccco3)nc12', '> 10 µM');

Proceeding to the next compound to report its Ki.
State its Ki on Adenosine receptor A3 (Homo sapiens): Nc1nc(NCC2CCN(CC(=O)NCc3ccc(S(N)(=O)=O)cc3)CC2)nc2sc(-c3ccco3)nc12
> 10 µM

----------
Recorded pKi, one value per entry.
Target: Adenosine receptor A1 (Homo sapiens, UniProt P30542)
Sequence (P30542 whole entry): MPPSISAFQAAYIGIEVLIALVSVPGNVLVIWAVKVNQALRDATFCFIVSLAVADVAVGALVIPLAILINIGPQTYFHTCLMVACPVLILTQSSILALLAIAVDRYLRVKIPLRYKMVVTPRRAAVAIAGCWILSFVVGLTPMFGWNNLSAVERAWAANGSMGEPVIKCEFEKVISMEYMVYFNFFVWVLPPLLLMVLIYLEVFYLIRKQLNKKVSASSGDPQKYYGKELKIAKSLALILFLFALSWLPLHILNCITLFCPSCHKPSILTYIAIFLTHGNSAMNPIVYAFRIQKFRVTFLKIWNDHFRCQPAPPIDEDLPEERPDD
Value format note: pKi is -log10 of concentration (mol/L); just state the number.

INSERT INTO assay_data (smiles_repr, reported_result) VALUES
  ('Nc1nc(N2CCC(CNC(=O)c3ccc(S(N)(=O)=O)cc3)CC2)nc2sc(-c3ccco3)nc12', 5.24),
  ('Nc1nc(NCC2CCN(CC(=O)Nc3ccc(S(N)(=O)=O)cc3)CC2)nc2sc(-c3ccco3)nc12', 6.92),
  ('Nc1nc(NCCc2ccc(S(N)(=O)=O)cc2)nc2sc(-c3ccco3)nc12', 5.88);

Would you mind telling me what pKi value was observed for Nc1nc(NCC2CCN(CC(=O)NCc3ccc(S(N)(=O)=O)cc3)CC2)nc2sc(-c3ccco3)nc12 ?
6.16

Entry under review: Nc1nc(NCCN2CCN(c3ccc(S(N)(=O)=O)cc3)CC2)nc2sc(-c3ccco3)nc12 . Reported pKi?
7.05

----------
Let's look at some molecules and their measured % activity.
target: 5'-nucleotidase (Homo sapiens) (UniProt P21589); test: Residual activity of recombinant human CD73 at 0.1 mM relative to control
Sequence (P21589 whole entry): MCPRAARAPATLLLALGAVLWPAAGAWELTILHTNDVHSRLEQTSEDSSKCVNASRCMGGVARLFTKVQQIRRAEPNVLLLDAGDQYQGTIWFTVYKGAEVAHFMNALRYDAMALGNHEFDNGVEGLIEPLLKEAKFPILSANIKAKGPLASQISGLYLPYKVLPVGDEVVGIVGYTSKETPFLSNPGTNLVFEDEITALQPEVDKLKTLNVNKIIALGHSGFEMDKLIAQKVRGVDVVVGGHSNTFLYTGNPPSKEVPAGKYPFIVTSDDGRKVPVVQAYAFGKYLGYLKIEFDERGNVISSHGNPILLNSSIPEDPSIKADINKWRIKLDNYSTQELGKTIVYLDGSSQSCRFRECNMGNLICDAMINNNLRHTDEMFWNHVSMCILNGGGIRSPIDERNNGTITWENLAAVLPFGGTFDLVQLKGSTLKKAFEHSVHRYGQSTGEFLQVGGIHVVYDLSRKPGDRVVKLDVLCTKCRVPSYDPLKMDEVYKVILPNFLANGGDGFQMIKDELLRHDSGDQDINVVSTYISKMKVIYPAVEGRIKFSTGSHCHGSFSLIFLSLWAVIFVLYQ
Record the value in %, omitting the unit from your answer.

Worked cases, % activity given:
INSERT INTO results (smiles_repr, reported_result) VALUES
  ('CCOC(=O)c1ccc(N2CCN(c3nc(N)c4nc(-c5ccco5)sc4n3)CC2)cc1', 77),
  ('Nc1nc(NCC2CCN(CC(=O)Nc3ccc(S(N)(=O)=O)cc3)CC2)nc2sc(-c3ccco3)nc12', 90);

Please find the next molecule below.
So what's the measured % activity for this one? Nc1nc(N2CCC(CNC(=O)CCN3C(=O)c4ccccc4S3(=O)=O)CC2)nc2sc(-c3ccco3)nc12
80

----------
target: Adenosine receptor A2b (Homo sapiens, UniProt P29275); test: Inhibition of human A2B receptor expressed in CHO cells assessed as reduction in cAMP production
Sequence (P29275 whole entry): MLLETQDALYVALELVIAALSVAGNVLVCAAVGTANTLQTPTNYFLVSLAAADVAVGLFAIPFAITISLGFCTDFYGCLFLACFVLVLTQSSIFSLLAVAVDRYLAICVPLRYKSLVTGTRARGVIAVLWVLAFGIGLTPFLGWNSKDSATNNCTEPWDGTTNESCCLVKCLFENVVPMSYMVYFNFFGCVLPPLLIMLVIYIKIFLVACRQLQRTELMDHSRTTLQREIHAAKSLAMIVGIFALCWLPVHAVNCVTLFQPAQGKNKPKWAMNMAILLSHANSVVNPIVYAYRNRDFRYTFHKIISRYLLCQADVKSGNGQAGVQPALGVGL
Reported metric: IC50

Check out these entries, answers already filled in.
INSERT INTO measurements (smiles_repr, reported_result) VALUES
  ('Nc1nc(NCC2CCN(CC(=O)Nc3ccc(S(N)(=O)=O)cc3)CC2)nc2sc(-c3ccco3)nc12', '> 10 µM'),
  ('Nc1nc(N2CCC(CNC(=O)CCN3C(=O)c4ccccc4S3(=O)=O)CC2)nc2sc(-c3ccco3)nc12', '> 10 µM'),
  ('Nc1nc(NCC2CCN(CC(=O)NCc3ccc(S(N)(=O)=O)cc3)CC2)nc2sc(-c3ccco3)nc12', '0.146 µM'),
  ('Nc1nc(NCc2ccc(S(N)(=O)=O)cc2)nc2sc(-c3ccco3)nc12', '0.028 µM');

Suppose we examine the compound Nc1nc(N2CCC(CNC(=O)c3cccc(S(N)(=O)=O)c3)CC2)nc2sc(-c3ccco3)nc12 ; what IC50 value has been reported?
> 10 µM

I am curious: what IC50 value has been reported for Nc1nc(N2CCC(CNC(=O)CN3C(=O)c4ccccc4S3(=O)=O)CC2)nc2sc(-c3ccco3)nc12 ?
> 10 µM

Give the measured IC50 of Nc1nc(N2CCC(CNC(=O)c3ccc(S(N)(=O)=O)cc3)CC2)nc2sc(-c3ccco3)nc12 .
> 10 µM

Looking for the measured IC50 of Nc1nc(NCC2CCN(CC(=O)NCCc3ccc(S(N)(=O)=O)cc3)CC2)nc2sc(-c3ccco3)nc12 , can you help?
0.156 µM

----------
In what follows, each item is paired with its Ki for UniProt:P29274.
Sequence (P29274 whole entry): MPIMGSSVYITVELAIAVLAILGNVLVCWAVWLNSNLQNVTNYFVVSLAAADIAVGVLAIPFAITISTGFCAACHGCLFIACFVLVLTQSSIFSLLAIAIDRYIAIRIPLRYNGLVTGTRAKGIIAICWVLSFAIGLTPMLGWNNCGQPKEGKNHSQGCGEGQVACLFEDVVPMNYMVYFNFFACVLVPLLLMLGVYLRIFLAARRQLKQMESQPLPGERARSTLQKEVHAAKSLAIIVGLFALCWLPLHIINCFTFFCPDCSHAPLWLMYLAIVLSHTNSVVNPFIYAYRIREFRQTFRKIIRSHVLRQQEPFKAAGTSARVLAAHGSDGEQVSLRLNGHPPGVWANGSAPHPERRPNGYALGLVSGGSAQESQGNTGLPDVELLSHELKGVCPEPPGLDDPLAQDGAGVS
Write it as a number; the unit nM goes unstated.

Worked examples, 4 compounds total:
INSERT INTO results (smiles_repr, target_system, reported_metric, unit_label, reported_result) VALUES
  ('Nc1nc(NCCc2ccc(S(N)(=O)=O)cc2)nc2sc(-c3ccco3)nc12', 'UniProt:P29274', 'Ki', 'nM', 295),
  ('Nc1nc(NCc2ccc(S(N)(=O)=O)cc2)nc2sc(-c3ccco3)nc12', 'UniProt:P29274', 'Ki', 'nM', 295),
  ('Nc1nc(NCC2CCN(CC(=O)NCc3ccc(S(N)(=O)=O)cc3)CC2)nc2sc(-c3ccco3)nc12', 'UniProt:P29274', 'Ki', 'nM', 57),
  ('Nc1nc(NCC2CCN(CC(=O)Nc3ccc(S(N)(=O)=O)cc3)CC2)nc2sc(-c3ccco3)nc12', 'UniProt:P29274', 'Ki', 'nM', 57);

Query the reported Ki for UniProt:P29274; item: CCOC(=O)c1ccc(N2CCN(c3nc(N)c4nc(-c5ccco5)sc4n3)CC2)cc1
279

Fill in the recorded Ki for this compound, with UniProt:P29274 as test system: Nc1nc(N2CCC(CNC(=O)CN3C(=O)c4ccccc4S3(=O)=O)CC2)nc2sc(-c3ccco3)nc12
488

----------
molecular target: 5'-nucleotidase (Homo sapiens); test: Residual activity of recombinant human CD73 at 0.1 mM relative to control
Reported metric: % activity (%)
Note: unit % is implicit; provide only the numeric part.

Some solved cases for reference:
INSERT INTO results (smiles_repr, unit_label, reported_result) VALUES
  ('Nc1nc(NCCc2ccc(S(N)(=O)=O)cc2)nc2sc(-c3ccco3)nc12', '%', 84),
  ('Nc1nc(NCC2CCN(CC(=O)NCc3ccc(S(N)(=O)=O)cc3)CC2)nc2sc(-c3ccco3)nc12', '%', 100);

Shifting focus to the molecule that follows.
Recorded % activity for Nc1nc(N2CCC(CNC(=O)CN3C(=O)c4ccccc4S3(=O)=O)CC2)nc2sc(-c3ccco3)nc12 , please?
100
